Target or system: HLA-B*5401 (human)
Test details: 125I-probe peptide inhibition, purified HLA
# reported log10 IC50; entries follow
Scale: log10; quantity: IC50; unit before log: nM

Below, 3 binders whose answers are already recorded.
Binder	log10 IC50
FPRMPEAAPPV [p53.63F1]	-0.52
FPLPSQAI [p53.33.F1]	1.92
FPAPSWPL [p53.86.F1]	0.96

Ask: Note down log10 IC50 recorded for FPAPAPSWPI [p53.84.F1110]
Reply: 0.08

Ask: State its log10 IC50: FPRMPEAAPPI [p53.63.F1111]
Reply: 0.46

Ask: Please give the documented log10 IC50 of FPPVAPAPAI [p53.70.F1110]
Reply: 1.80
